// reported IC50 for each item listed
- measurement-target: human PDHK2 (hPDHK2) (Homo sapiens (Human), UniProt Q15119)
- method-notes: Inhibitory action of PDHK activity in vitro (kinase reaction, residual PDH activity measured)
- Type: biochemical
- condition-set: read-out: PDHK inhibitory activity IC50
parameter: IC50 (nM)

{"compound": "CCn1cc(-c2ccc3c(c2)C(O)(C(F)(F)F)c2cccc(CO)c2-3)cn1 (stereo not shown)", "comparison-sign": ">", "assay-value": 1000}
{"compound": "O=C(O)c1ccccc1-c1ccc2c(c1)C(O)(C(F)(F)F)c1ccccc1-2 (stereo not shown)", "comparison-sign": ">", "assay-value": 10000}
{"compound": "OC1(C(F)(F)F)c2ccccc2-c2cc(Cl)ccc21 (stereo not shown)", "comparison-sign": "=", "assay-value": 20000}
{"compound": "CCOc1cc(-c2cnn(CCC(=O)O)c2)c2c(c1)C(O)(C(F)(F)F)c1ccccc1-2 (single isomer, unassigned)", "comparison-sign": "=", "assay-value": 19}
{"compound": "O=C(O)Cn1cc(-c2ccc3c(c2)C(O)(C(F)(F)F)c2cccc(CO)c2-3)cn1 (stereo not shown)", "comparison-sign": ">", "assay-value": 1000}
{"compound": "O=C(O)CCCOc1cc(-c2cncnc2)c2c(c1)C(O)(C(F)(F)F)c1ccccc1-2 (single isomer, unassigned) [compound 604]", "comparison-sign": "=", "assay-value": 35}
{"compound": "O=C1CCCCN1CCCOc1ccc2c(c1)C(O)(C(F)(F)F)c1ccccc1-2 (stereo not shown)", "comparison-sign": "=", "assay-value": 554}
{"compound": "CCOc1cc(-c2cnn(CCCC(=O)O)c2)c2c(c1)C(O)(C(F)(F)F)c1ccccc1-2 (single isomer, unassigned)", "comparison-sign": "=", "assay-value": 21}
{"compound": "CC(O)c1cc(-c2cnn(CCO)c2)cc2c1-c1ccccc1C2(O)C(F)(F)F (stereo not shown)", "comparison-sign": "=", "assay-value": 513}
{"compound": "CC(C)n1cc(-c2cc(CO)c3c(c2)C(O)(C(F)(F)F)c2ccccc2-3)cn1 (stereo not shown)", "comparison-sign": "=", "assay-value": 65}
{"compound": "CC(C)(C)Cn1cc(-c2cc(C(N)=O)c3c(c2)C(O)(C(F)(F)F)c2ccccc2-3)cn1 (single isomer, unassigned) [compound 659]", "comparison-sign": "=", "assay-value": 16}
{"compound": "OC1(C(F)(F)F)c2ccccc2-c2ccc(-c3ccc(F)cc3)cc21 (stereo not shown)", "comparison-sign": "=", "assay-value": 951}
{"compound": "O=C1CCC(CO)N1CCOc1ccc2c(c1)C(O)(C(F)(F)F)c1ccccc1-2 (stereo not shown)", "comparison-sign": "=", "assay-value": 442}
{"compound": "CN(CCO)C(=O)c1cc(-c2cncnc2)c2c(c1)C(O)(C(F)(F)F)c1ccccc1-2 (stereo not shown)", "comparison-sign": "=", "assay-value": 564}
{"compound": "O=C1CCC(COc2ccc3c(c2)C(O)(C(F)(F)F)c2ccccc2-3)N1CCO (stereo not shown)", "comparison-sign": "=", "assay-value": 247}
{"compound": "OC1(C(F)(F)F)c2ccccc2-c2ccc(Oc3ccccc3)cc21 (stereo not shown)", "comparison-sign": "=", "assay-value": 2480}

###

- measurement-target: human PDHK2 (hPDHK2) (Homo sapiens (Human), UniProt Q15119)
- method-notes: Inhibitory action of PDHK activity in vitro (kinase reaction, residual PDH activity measured)
- Type: biochemical
- condition-set: read-out: PDHK inhibitory activity IC50

{"compound": "Cn1cc(-c2cc(OCCC34CC5CC(CC(O)(C5)C3)C4)cc3c2-c2ccccc2C3(O)C(F)(F)F)cn1 (single isomer, unassigned)", "IC50": "16 nM"}
{"compound": "CNC(=O)C1CN(C(=O)c2ccc3c(c2)C(O)(C(F)(F)F)c2ccccc2-3)C1 (stereo not shown)", "IC50": "736 nM"}
{"compound": "O=C(O)CCCCCOc1ccc2c(c1)C(O)(C(F)(F)F)c1ccccc1-2 (stereo not shown)", "IC50": "553 nM"}
{"compound": "CN(C)C(=O)COc1cc(-c2cnn(C)c2)c2c(c1)C(O)(C(F)(F)F)c1ccccc1-2 (stereo not shown)", "IC50": "30 nM"}
{"compound": "Cn1cc(-c2cc(C(=O)N3CCC(O)C3)cc3c2-c2ccccc2C3(O)C(F)(F)F)cn1 (stereo not shown)", "IC50": "85 nM"}
{"compound": "OC1(C(F)(F)F)c2ccccc2-c2c(Br)cccc21 (stereo not shown)", "IC50": "1110 nM"}
{"compound": "O=C1COCCN1CCOc1ccc2c(c1)C(O)(C(F)(F)F)c1ccccc1-2 (stereo not shown)", "IC50": "223 nM"}

###

// reported pIC50 for each item listed
- measurement-target: human PDHK2 (hPDHK2) (Homo sapiens (Human))
- method-notes: Inhibitory action of PDHK activity in vitro (kinase reaction, residual PDH activity measured)
- Assay type: biochemical
- condition-set: PDHK inhibitory activity, class symbol of IC50
- Description: In the case of human PDHK2 (hPDHK2, Genbank Accession No. NM_002611), modified hPDHK2 cDNA wherein FLAG-Tag sequence is added to the N terminal by a polymerase linkage reaction was prepared based on hPDHK2 cDNA clone (pReceiver-M01/PDK2-GeneCopoeia), and cloned into a vector (pET17b-Novagen). The recombinant construct was transformed into Escherichia coli (DH5α-TOYOBO). The recombinant clones were identified, plasmid DNA was isolated and subjected to the DNA sequence analysis. […]
pIC50: −log10 of the molar value.
parameter: pIC50

{"compound": "CN(C)C(=O)CCCOc1cc(-c2cnn(C)c2)c2c(c1)C(O)(C(F)(F)F)c1ccccc1-2 (centres unmarked)", "assay-value": "> 7.00"}
{"compound": "CCN(C)C(=O)c1ccc2c(c1)C(O)(C(F)(F)F)c1ccccc1-2 (centres unmarked)", "assay-value": "< 6.00"}
{"compound": "CNC(=O)Cn1cc(-c2cc(F)cc3c2-c2ccccc2C3(O)C(F)(F)F)cn1 (centres unmarked)", "assay-value": "> 7.00"}
{"compound": "CNC(=O)Cn1cc(-c2cc(C)cc3c2-c2ccccc2[C@]3(O)C(F)(F)F)cn1 (stereo in doubt)", "assay-value": "> 7.00"}
{"compound": "O=C(O)CCCCCOc1ccc2c(c1)C(O)(C(F)(F)F)c1ccccc1-2 (centres unmarked)", "assay-value": "6.00 to 7.00"}
{"compound": "CC(=O)N(CCOc1ccc2c(c1)C(O)(C(F)(F)F)c1ccccc1-2)CCC(=O)O (centres unmarked)", "assay-value": "< 6.00"}
{"compound": "Cc1cc(Cl)c2c(c1)C(O)(C(F)(F)F)c1ccccc1-2 (centres unmarked)", "assay-value": "6.00 to 7.00"}
{"compound": "CN(C)C(=O)Cn1cc(-c2cccc3c2-c2ccccc2C3(O)C(F)(F)F)cn1 (centres unmarked)", "assay-value": "6.00 to 7.00"}
{"compound": "NC(=O)COc1cc(-c2cn[nH]c2)c2c(c1)C(O)(C(F)(F)F)c1ccccc1-2 (centres unmarked)", "assay-value": "> 7.00"}
{"compound": "COC(=O)COC1CN(C(=O)c2ccc3c(c2)C(O)(C(F)(F)F)c2ccccc2-3)C1 (centres unmarked)", "assay-value": "6.00 to 7.00"}
{"compound": "CCOC(=O)c1ccccc1-c1ccc2c(c1)C(O)(C(F)(F)F)c1ccccc1-2 (centres unmarked)", "assay-value": "< 6.00"}
{"compound": "CCNC(=O)c1ccc2c(c1)C(O)(C(F)(F)F)c1ccccc1-2 (centres unmarked)", "assay-value": "< 6.00"}
{"compound": "NC(=O)CCn1cc(-c2cccc3c2-c2ccccc2C3(O)C(F)(F)F)cn1 (centres unmarked)", "assay-value": "> 7.00"}
{"compound": "OC1(C(F)(F)F)c2ccccc2-c2ccc(N3CCCC3)cc21 (centres unmarked)", "assay-value": "< 6.00"}
{"compound": "NC(=O)COc1ccc2c(c1)C(O)(C(F)(F)F)c1ccccc1-2 (centres unmarked)", "assay-value": "6.00 to 7.00"}
{"compound": "CC(C)c1ccc2c(c1)C(O)(C(F)(F)F)c1ccccc1-2 (centres unmarked)", "assay-value": "< 6.00"}
{"compound": "OC1(C(F)(F)F)c2ccccc2-c2c(-c3cccnc3)cccc21 (centres unmarked)", "assay-value": "6.00 to 7.00"}
{"compound": "OC1(C(F)(F)F)c2ccccc2-c2ccc(C3CCCCC3)cc21 (centres unmarked)", "assay-value": "< 6.00"}
{"compound": "COc1ccc2c(c1)-c1ccccc1C2(O)C(F)(F)F (centres unmarked)", "assay-value": "< 6.00"}
{"compound": "CC(=O)Nc1ccccc1-c1ccc2c(c1)C(O)(C(F)(F)F)c1ccccc1-2 (centres unmarked)", "assay-value": "< 6.00"}
{"compound": "CCCCN(C)C(=O)c1ccc2c(c1)C(O)(C(F)(F)F)c1ccccc1-2 (centres unmarked)", "assay-value": "< 6.00"}
{"compound": "CC(=O)NCCCOc1ccc2c(c1)C(O)(C(F)(F)F)c1ccccc1-2 (centres unmarked)", "assay-value": "< 6.00"}
{"compound": "CNC(=O)C1CN(C(=O)c2ccc3c(c2)C(O)(C(F)(F)F)c2ccccc2-3)C1 (centres unmarked)", "assay-value": "6.00 to 7.00"}
{"compound": "O=C(c1ccc2c(c1)C(O)(C(F)(F)F)c1ccccc1-2)N1CCC(CO)C1 (centres unmarked)", "assay-value": "6.00 to 7.00"}
{"compound": "COC(=O)c1cc(-c2cncnc2)c2c(c1)C(O)(C(F)(F)F)c1ccccc1-2 (centres unmarked)", "assay-value": "6.00 to 7.00"}
{"compound": "Cc1noc(-c2ccc3c(c2)C(O)(C(F)(F)F)c2ccccc2-3)n1 (centres unmarked)", "assay-value": "6.00 to 7.00"}
{"compound": "OCCn1cc(-c2cccc3c2-c2ccccc2C3(O)C(F)(F)F)cn1 (centres unmarked)", "assay-value": "> 7.00"}
{"compound": "OC1(C(F)(F)F)c2ccccc2-c2ccc(-c3cnco3)cc21 (centres unmarked)", "assay-value": "6.00 to 7.00"}
{"compound": "O=S1(=O)CCCN1CCOc1ccc2c(c1)C(O)(C(F)(F)F)c1ccccc1-2 (centres unmarked)", "assay-value": "6.00 to 7.00"}
{"compound": "OC1(C(F)(F)F)c2ccccc2-c2ccc(OCc3ccccc3)cc21 (centres unmarked)", "assay-value": "< 6.00"}
{"compound": "Cn1cc(-c2cc(OCCCO)cc3c2-c2ccccc2C3(O)C(F)(F)F)cn1 (centres unmarked)", "assay-value": "> 7.00"}
{"compound": "Cn1cc(-c2cc(C(=O)N3CCC[C@@H]3CO)cc3c2-c2ccccc2C3(O)C(F)(F)F)cn1 (some centres unmarked)", "assay-value": "6.00 to 7.00"}

All values here come from patent US8871934B2.
